# System: Artemia salina nauplii
# assayInfo: Brine shrimp (Artemia salina) lethality test
# Format: in vivo
# measurementConditions: 25 and 50 µM, 48 h of exposure
measure: Artemia salina mortality

INSERT INTO results (compound, value) VALUES
  ('CCCOc1ccc(N2CCCCC2)c2c(=O)c3ccccc3sc12 [Compound 17]', '> 10%'),
  ('CCCOc1ccc(NCCc2ccc3c(c2)OCO3)c2c(=O)c3ccccc3sc12 [Compound 15, 1-[11]-4-propoxy-9H-thioxanthen-9-one]', '> 10%'),
  ('O=c1c2ccccc2oc2ccc(O)c(O)c12 [Compound 5, 1,2-dihydroxy-]', '> 10%'),
  ('CC1(C)CCc2cc3c(=O)c4ccccc4oc3c(O)c2O1 [Compound 10]', '< 10%'),
  ('O=c1c2ccccc2oc2c(O)c(O)ccc12 [Compound 7, 3,4-dihydroxy-]', '< 10%'),
  ('O=c1c2ccccc2oc2c(O)cccc12 [Compound 4, 4-hydroxy-]', '> 10%');
